# HCMV C-A (Human cytomegalovirus, UniProt P16753, A143V/A209V/C138A/C202A/C84A/C87A): kinact HCMV C-A values follow

INSERT INTO measurements (compound, experimental_value) VALUES
  ('O=C(CCl)Cn1nnc(-c2ccccc2)c1COC(=O)N1CCOCC1 [Compound 45]', '0.020 min⁻¹'),
  ('O=C(CCl)Cn1nnc(-c2ccccc2)c1COC(=O)NCCCN1CCCC1=O [Compound 47]', '0.016 min⁻¹'),
  ('COCCNC(=O)OCc1c(-c2ccccc2)nnn1CC(=O)CCl [Compound 44]', '0.022 min⁻¹'),
  ('O=C(CCl)Cn1nnc(-c2ccccc2)c1COC(=O)NCc1ccccc1 [Compound 43]', '0.024 min⁻¹');

Field: next compound
Q: I have this compound here, O=C(CCl)Cn1cc(-c2ccccc2)nn1 [Compound 31] , and I need its recorded kinact HCMV C-A.
Ans: 0.026 min⁻¹
